In this section, each of the binders is paired with its reported hCCL1 (100 nM) residual response, Protocol #2, mAb 0.08 µg/mL.
# TESTED_TARGET: human CCR8 (human, UniProt P51685 1-355)
# ASSAY_REMARKS: cell-based or functional assay
Report field: quantity (unit follows the number).

Example entries and their recorded answers appear below.
3-45 (antibody, V domains shown) VH: EVQLVETGGGLVQPKGSLKLSCAASGFTFNANAMNWVRQAPGKGLEWVARIRSKSNNYATYYADSVKDRFTISRDDSQSMLYLQMNNLKTEDTAMYYCVRGSDNYIFYAMDYWGQGTSVTVSS VL: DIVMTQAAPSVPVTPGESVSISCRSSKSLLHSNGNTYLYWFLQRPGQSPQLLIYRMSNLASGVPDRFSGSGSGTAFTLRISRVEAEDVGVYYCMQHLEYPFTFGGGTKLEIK | 99%
3-21 (antibody, V domains shown) VH: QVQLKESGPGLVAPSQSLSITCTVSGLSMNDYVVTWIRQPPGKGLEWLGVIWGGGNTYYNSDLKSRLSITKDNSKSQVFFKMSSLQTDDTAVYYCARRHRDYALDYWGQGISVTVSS VL: DVVMTQTPLSLPVSLGDQASISCRSSQSLVYSNGNTYLHWYLQKPGQSPKLLIYKVSNRFSGVPDRFSGSGSGTDFTLKISRVEAEDLGVYFCSQSTYVPPTFGGGTKLEIK | 99%

Let us move to another entry and its hCCL1 (100 nM) residual response, Protocol #2, mAb 0.08 µg/mL.
Any idea what hCCL1 (100 nM) residual response, Protocol #2, mAb 0.08 µg/mL was measured for 3-5 (antibody, V domains shown) VH: EVQLLESGGGLVQPKGSLKLSCAASGFTFNPYAMNWVRQAPGRGLEWVARIRSKSNNYATYYADSVKDRFTISRDDSQDMLYLQMNNLKTEDTAMYYCVRGREAYYRYDGDYYAMDYWGQGTSVTVSS VL: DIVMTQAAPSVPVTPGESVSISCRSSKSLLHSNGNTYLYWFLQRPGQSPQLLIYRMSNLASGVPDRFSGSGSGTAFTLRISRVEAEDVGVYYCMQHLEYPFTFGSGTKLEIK ?
81%
